Data provenance is patent US12383533B2.

Parameter: percent inhibition of cell viability at 4 µM. Scope: all listed entries.
# Tested on: A2780 cells
# protocolNotes: Cell Viability Assay (ATPlite 1step), A2780
# Type: cell-based
# reportedConditions: Homo sapiens; A2780, 4 uM compound, 72 hours; read-out: Cell Viability % inhibition A2780 (4 uM Cpd)
assayReadout: percent inhibition of cell viability at 4 µM (%)

{"columns": ["compound", "readoutNumber"],
 "data": [
  ["Cc1ncc(C(=O)Nc2ccc(-c3cccc(NC4CC4)c3)cn2)cn1", 70.9],
  ["O=C(Nc1ccc(-c2ccccc2Cl)cn1)c1cncnc1", 79.7],
  ["Cc1ncc(C(=O)Nc2ccc(-c3cccc(NC4CCNC4)c3)cn2)cn1 (stereo not drawn)", 80.3],
  ["Cc1ncc(C(=O)Nc2ccc(-c3cccc(S(=O)(=O)C4CC4)c3)c(C)n2)cn1", 80],
  ["CNC(=O)c1cccc(-c2ccc(NC(=O)c3cncnc3)nc2)c1", 84.5],
  ["O=C(Nc1ccc(-c2cccnc2)cn1)c1cncnc1", 51.2],
  ["Cc1ncc(C(=O)Nc2ccc(-c3cccc(S(=O)(=O)C4CC4)c3)cn2)cn1", 85.6],
  ["Cc1ncc(C(=O)Nc2ccc(-c3ccccc3)cn2)cn1", 89.8],
  ["O=C(Nc1ccc(-c2cccc(C3CC3)c2)cn1)c1cnc(O)nc1", 77.1]
]}
